The values you see were collected from PubChem BioAssay AID330.

test system: P388 leukemia ip, CD2F1 mice, survival T/C; experiment: NCI In Vivo Anticancer Drug Screen. Data for tumor model P388 Leukemia (intraperitoneal) in CD2F1 (CDF1) mice; conditions: endpoint: median survival time; dose: 25.0 mg/kg/injection; schedule: Q01DX009 (ip); vehicle: saline with Tween-80
Toxic doses and inconclusive results are not listed. The calls were made as follows: active = survival T/C of 150% or more; inactive = T/C below 125% in these data.
Choose the fitting class; nothing outside True for active, False for inactive is accepted.

- COMPOUND: "O=C(NCCN(C(=O)C12CC3CC(CC(C3)C1)C2)c1ccc(F)cc1)C12CC3CC(CC(C3)C1)C2"
  QUALITATIVE LABEL: "False"
- COMPOUND: "O=C(O)c1cc(=O)c2cc3c(=O)cc(C(=O)O)[nH]c3c(Cl)c2[nH]1"
  QUALITATIVE LABEL: "False"
- COMPOUND: "CC(=N)c1ccc(C)cc1"
  QUALITATIVE LABEL: "False"

Inquiry: Hi team, can someone confirm the assay call for C#CC(=O)O ?
Reply text: False

Inquiry: Same for CCN(CC)C(=O)C1(C)NS(=O)(=O)c2ccccc2C1=O (configuration not stated)
Reply text: False

Inquiry: Same for Oc1c(CN2CCCCC2)ccc2cccnc12
Reply text: False

Inquiry: Same for O=C(/C=C/c1ccc(OCc2ccccc2)cc1)c1ccc(C(F)(F)F)cc1
Reply text: False

Inquiry: Same for OC(C1CO1)C(O)C1CO1 (configuration not stated)
Reply text: False

Inquiry: Same for Oc1cc2c(cc1O)C(c1ccccc1)CNCC2 (configuration not stated)
Reply text: False

* * *

tested on: P388 leukemia ip, CD2F1 mice, survival T/C; test: NCI In Vivo Anticancer Drug Screen. Data for tumor model P388 Leukemia (intraperitoneal) in CD2F1 (CDF1) mice; conditions: endpoint: median survival time; dose: 50.0 mg/kg/injection; schedule: Q01DX009 (ip); vehicle: saline; higher = longer survival
Toxic doses and inconclusive results are not listed.
QUANTITY NAME: T/C

Solved cases (4 shown):
- COMPOUND: "COC(=O)Nc1ccc(C(=O)c2ccccc2)cc1"
  T/C: "98 % of control"
- COMPOUND: "Cc1cc(Cl)ccc1N=Cc1cccs1"
  T/C: "90 % of control"
- COMPOUND: "O=C(Nc1ncc([N+](=O)[O-])s1)c1ccc([N+](=O)[O-])cc1"
  T/C: "104 % of control"
- COMPOUND: "CC([NH-])C(=O)O.[Cl][Pt][Cl] (stereo not given)"
  T/C: "123 % of control"

Inquiry: # value lookup — system P388 leukemia ip, CD2F1 mice, survival T/C, readout T/C, item N#CC1CCCC[N-]1.[NH-]CC[N-]CC[NH-].[Pt+4] (stereo not given)
Reply text: 97 % of control

* * *

system: P388 leukemia ip, CD2F1 mice, survival T/C; experiment: NCI In Vivo Anticancer Drug Screen. Data for tumor model P388 Leukemia (intraperitoneal) in CD2F1 (CDF1) mice; conditions: endpoint: median survival time; dose: 200.0 mg/kg/injection; schedule: Q01DX009 (ip); vehicle: saline with Tween-80
Toxic doses and inconclusive results are not listed. How the source made its calls: active means survival T/C of 150% or more; inactive means T/C below 125% in these data.
Choose the fitting class; nothing outside T for active, F for inactive is accepted.

- MOLECULE: "O=[n+]1cc2ccccn2cc1-c1ccccc1"
  TARGET OF ASSAY: "P388 leukemia ip, CD2F1 mice, survival T/C"
  QUALITATIVE LABEL: "F"

Inquiry: Hi team, can someone confirm the assay call for NC1(N2SC(S)=C3CCCC=C32)CCCCC1 ?
Reply text: F

Inquiry: Same for C[n+]1ccc(/C=C/c2ccccc2)cc1
Reply text: F

Inquiry: Same for Fc1ccccc1CSc1ncnc2nc[nH]c12
Reply text: F

Inquiry: Same for Cc1ccc(S(=O)(=O)N/N=C/c2ccccc2Cl)cc1
Reply text: F

Inquiry: Same for COC1/C=C/OC2(C)Oc3c(C)c(O)c4c(c3C2=O)C(=O)C=C(NC(=O)/C(C)=C\C=C\C(C)C2OC(C)(C)OC(C2C)C(C)C(OC(C)=O)C1C)C4=O (stereo not drawn)
Reply text: F

Inquiry: Same for CCc1cccc(CC)c1NC(=S)NC(=O)c1ccccc1
Reply text: F

Inquiry: Same for Cc1ccc(N=C(N=C(NC(=O)c2ccccc2)c2ccccc2)c2ccccc2)cc1
Reply text: F

Inquiry: Same for CCOC(=O)c1ccc(NC)cc1
Reply text: F

Inquiry: Same for O=P(Oc1ccc(OP(=O)(N2CC2)N2CC2)cc1)(N1CC1)N1CC1
Reply text: T

Inquiry: Same for CC1(C)COC(=O)C(C)(C2(C)NC(C)(C)COC2=O)N1 (stereo not drawn)
Reply text: F

Inquiry: Same for COC(=O)C1C(=O)CC2C(C(=O)OC)C(=O)CC12 (stereo not drawn)
Reply text: F

Inquiry: Same for CN1C2=C(C#N)C(=C(C#N)C#N)NC2C(C)(C)c2ccccc21 (stereo not drawn)
Reply text: F
